# System: Blood stage forms of Trypanosoma brucei brucei
# assay_name: In vitro antitrypanosomal assay
# Type: cell-based
# condition_summary: read-out: Trypanosoma brucei IC50; NA: not active
value_type: IC50

>>> meas_value("NCCCC(N)(C(=O)O)C(F)F (stereo not shown) [DFMO, difluoromethylornithine]")
"21.3 µM"
